- protocolDetails: LNP size and polydispersity index by dynamic light scattering (Zetasizer Nano ZS)
- Format: physicochemical
- testParameters: LNP with mRNA payload formulated with the lipid; active lipid/Cholesterol/DOPC/DMG-PEG 16.8/4.0/2.0/1.0; Lipids:mRNA 25:1; PBS pH 7.4, 25° C.
measuredEndpoint: Size (nm)
Give bare numbers, in nm.

{"compound": "CCCCCCC(CCCC)COC(=O)OCCOC(=O)CCN(CCCN(CCO)CCCN(CCC(=O)OCCOC(=O)OCC(CCCC)CCCCCC)CCC(=O)OCCOC(=O)OCC(CCCC)CCCCCC)CCC(=O)OCCOC(=O)OCC(CCCC)CCCCCC (stereo not shown) [Lipid L0665]", "unitName": "nm", "Size (nm)": 107.6}

Lab note: each compound below needs its Size (nm) filled in.
1. CCCCCCC(CCCC)COC(=O)OCCOC(=O)CCN(CCCN(C)CCCN(CCC(=O)OCCOC(=O)OCC(CCCC)CCCCCC)CCC(=O)OCCOC(=O)OCC(CCCC)CCCCCC)CCC(=O)OCCOC(=O)OCC(CCCC)CCCCCC (stereo not shown) [Lipid L0088]
2. CCCCCCC(CCCC)COC(=O)OCCOC(=O)CCN(CCCN(CCCNC(=O)OC(C)(C)C)CCCN(CCC(=O)OCCOC(=O)OCC(CCCC)CCCCCC)CCC(=O)OCCOC(=O)OCC(CCCC)CCCCCC)CCC(=O)OCCOC(=O)OCC(CCCC)CCCCCC (stereo not shown) [Lipid L0668]
3. CCCCCCC(CCCC)CNC(=O)SCCOC(=O)CCN(CCCN(C)CCCN(CCC(=O)OCCSC(=O)NCC(CCCC)CCCCCC)CCC(=O)OCCSC(=O)NCC(CCCC)CCCCCC)CCC(=O)OCCSC(=O)NCC(CCCC)CCCCCC (stereo not shown) [Lipid L0550]

Reply |
1. 153.9
2. 134.7
3. 121

----------
- protocolDetails: Encapsulation efficiency and mRNA quantity by Ribogreen fluorescence plate assay
- Format: physicochemical
- testParameters: LNP with mRNA payload formulated with the lipid; 16.8/4.0/2.0/1.0; Lipids:mRNA 25:1; (total RNA - unencapsulated RNA)/total RNA
- Experimental: RNA working solutions (0.134 mg/ml) were prepared in 25 mM sodium acetate buffer using DNase/RNase-free distilled water. […] For LNP characterization, size and polydispersity index (PDI) were determined by dynamic light scattering using a Zetasizer Nano ZS. […] Encapsulation efficiency (EE %) was measured using a fluorescence plate-based assay employing the Ribogreen reagent (Invitrogen) as per PNI Ribogreen assay protocol 16. […]
Would you kindly list EE % for each of these molecules?
Hey, just the number and the unit after it is fine.

These solved cases illustrate the format of a correct answer.
{"molecule": "CCCCCCC(CCCC)CNC(=O)SCCOC(=O)CCN(CCCN(C)CCCN(CCC(=O)OCCSC(=O)NCC(CCCC)CCCCCC)CCC(=O)OCCSC(=O)NCC(CCCC)CCCCCC)CCC(=O)OCCSC(=O)NCC(CCCC)CCCCCC (centres unmarked) [Lipid L0550]", "EE %": "84.3%"}
{"molecule": "CCCCCCC(CCCC)COC(=O)OCCOC(=O)CCN(CCCN(CCCCO)CCCN(CCC(=O)OCCOC(=O)OCC(CCCC)CCCCCC)CCC(=O)OCCOC(=O)OCC(CCCC)CCCCCC)CCC(=O)OCCOC(=O)OCC(CCCC)CCCCCC (centres unmarked) [Lipid L0667]", "EE %": "97%"}
{"molecule": "CCCCCCC(CCCC)COC(=O)OCCOC(=O)CCN(CCCN(CCCNC(=O)OC(C)(C)C)CCCN(CCC(=O)OCCOC(=O)OCC(CCCC)CCCCCC)CCC(=O)OCCOC(=O)OCC(CCCC)CCCCCC)CCC(=O)OCCOC(=O)OCC(CCCC)CCCCCC (centres unmarked) [Lipid L0668]", "EE %": "97%"}

Batch of 2 molecules: report EE % for each.
1. CCCCCCC(CCCC)COC(=O)CCOC(=O)CCN(CCC(=O)OCCC(=O)OCC(CCCC)CCCCCC)CCN(C)CCN(CCC(=O)OCCC(=O)OCC(CCCC)CCCCCC)CCC(=O)OCCC(=O)OCC(CCCC)CCCCCC (centres unmarked) [Lipid L0855]
2. CC/C=C\CCCCOC(=O)CCN(CCCN(C)CCCN(CCC(=O)OCCCC/C=C\CC)CCC(=O)OCCOC(=O)OCC(CCCC)CCCCCC)CCC(=O)OCCCC/C=C\CC (centres unmarked) [Lipid L0829]

Reply |
95.1%
92%

----------
For each entry below, report its [mRNA] Ug/ml value.
- protocolDetails: Encapsulation efficiency and mRNA quantity by Ribogreen fluorescence plate assay
- Format: physicochemical
- testParameters: LNP with mRNA payload formulated with the lipid; 16.8/4.0/2.0/1.0; Lipids:mRNA 25:1
Give bare numbers, in Ug/ml.

See these solved cases before continuing.
{"molecule": "CC(C)CCCCCCCCSSCCOC(=O)CCN(CCCN(C)CCCN(CCC(=O)OCCSSCCCCCCCCC(C)C)CCC(=O)OCCSSCCCCCCCCC(C)C)CCC(=O)OCCSSCCCCCCCCC(C)C [Lipid L0813]", "testValue": 96.7}
{"molecule": "CCCCCCC(CCCC)COC(=O)OCCOC(=O)CCN(CCCN(CCCCO)CCCN(CCC(=O)OCCOC(=O)OCC(CCCC)CCCCCC)CCC(=O)OCCOC(=O)OCC(CCCC)CCCCCC)CCC(=O)OCCOC(=O)OCC(CCCC)CCCCCC (centres unmarked) [Lipid L0667]", "testValue": 77.3}
{"molecule": "CC(C)CCCCCCSSCCOC(=O)CCN(CCCn1ccnc1)CCC(=O)OCCSSCCCCCCC(C)C [Lipid L0645]", "testValue": 90}
{"molecule": "CCCCCCC(CCCC)COC(=O)OCCOC(=O)CCN(CCCN(CCCN(CCC(=O)OCCOC(=O)OCC(CCCC)CCCCCC)CCC(=O)OCCOC(=O)OCC(CCCC)CCCCCC)CCCN1CCN(C)CC1)CCC(=O)OCCOC(=O)OCC(CCCC)CCCCCC (centres unmarked) [Lipid L0674]", "testValue": 71.22}
{"molecule": "CCCCCCC(CCCC)COC(=O)CCOC(=O)CCN(CCCN(C)CCCN(CCC(=O)OCCC(=O)OCC(CCCC)CCCCCC)CCC(=O)OCCC(=O)OCC(CCCC)CCCCCC)CCC(=O)OCCC(=O)OCC(CCCC)CCCCCC (centres unmarked) [Lipid L0854]", "testValue": 77.7}

Record [mRNA] Ug/ml per entry; entries follow.
1. CC/C=C\CCCCOC(=O)CCN(CCCN(C)CCCN(CCC(=O)OCCOC(=O)OCC(CCCC)CCCCCC)CCC(=O)OCCOC(=O)OCC(CCCC)CCCCCC)CCC(=O)OCCOC(=O)OCC(CCCC)CCCCCC (centres unmarked) [Lipid L0830]
2. CCCCCCCCC(CCC)OC(=O)OCCOC(=O)CCN(CCC(=O)OCCOC(=O)OC(CCC)CCCCCCCC)CCN(C)CCN(CCC(=O)OCCOC(=O)OC(CCC)CCCCCCCC)CCC(=O)OCCOC(=O)OC(CCC)CCCCCCCC (centres unmarked) [Lipid L0638]
3. CCC(C)CCCCCOC(=O)CCN(CCC(=O)OCCCCCC(C)CC)CCN(C)CCN(CCC(=O)OCCCCCC(C)CC)CCC(=O)OCCCCCC(C)CC (centres unmarked) [Lipid L0631]
4. CCCC/C=C\CCOC(=O)CCN(CCCN(C)CCCN(CCC(=O)OCC/C=C\CCCC)CCC(=O)OCC/C=C\CCCC)CCC(=O)OCC/C=C\CCCC [Lipid L0826]

Reply |
91
65.1
88.88
95.2

Okay, here is my list. What is [mRNA] Ug/ml for each of these?
1. CCCCCCC(CCCC)COC(=O)OCCOC(=O)CCN(CCCN(CCCNC(=O)OC(C)(C)C)CCCN(CCC(=O)OCCOC(=O)OCC(CCCC)CCCCCC)CCC(=O)OCCOC(=O)OCC(CCCC)CCCCCC)CCC(=O)OCCOC(=O)OCC(CCCC)CCCCCC (centres unmarked) [Lipid L0668]
2. CCCCCCC(CCCC)COC(=O)OCCOC(=O)CCN(CCCN(CCCO)CCCN(CCC(=O)OCCOC(=O)OCC(CCCC)CCCCCC)CCC(=O)OCCOC(=O)OCC(CCCC)CCCCCC)CCC(=O)OCCOC(=O)OCC(CCCC)CCCCCC (centres unmarked) [Lipid L0666]

Reply |
1: 67.1; 2: 71.9

----------
- protocolDetails: Encapsulation efficiency and mRNA quantity by Ribogreen fluorescence plate assay
- Format: physicochemical
- testParameters: LNP with mRNA payload formulated with the lipid; 16.8/4.0/2.0/1.0; Lipids:mRNA 25:1; (total RNA - unencapsulated RNA)/total RNA
Label Yes when EE % >= 70%; otherwise No.

{"compound": "CCC(C)CCCCCOC(=O)CCN(CCC(=O)OCCCCCC(C)CC)CCN(C)CCN(CCC(=O)OCCCCCC(C)CC)CCC(=O)OCCCCCC(C)CC (stereo not shown)", "classLabel": "No"}
{"compound": "CCCCCCCCCC(CC)OC(=O)OCCOC(=O)CCN(CCCN(C)CCCN(CCC(=O)OCCOC(=O)OC(CC)CCCCCCCCC)CCC(=O)OCCOC(=O)OC(CC)CCCCCCCCC)CCC(=O)OCCOC(=O)OC(CC)CCCCCCCCC (stereo not shown) [Lipid L0660]", "classLabel": "Yes"}
{"compound": "CCC(C)CCCCCOC(=O)CCN(CCCN(C)CCCN(CCC(=O)OCCCCCC(C)CC)CCC(=O)OCCCCCC(C)CC)CCC(=O)OCCCCCC(C)CC (stereo not shown)", "classLabel": "No"}

Ask | Determine whether measured EE % meets or exceeds 70% for CCCC/C=C\CCOC(=O)CCN(CCCN(C)CCCN(CCC(=O)OCC/C=C\CCCC)CCC(=O)OCC/C=C\CCCC)CCC(=O)OCC/C=C\CCCC
Reply | No

Ask | # check: EE % of CC(C)CCCCCCSSCCOC(=O)CCN(CCCN(C)CCCN(CCC(=O)OCCSSCCCCCCC(C)C)CCC(=O)OCCSSCCCCCCC(C)C)CCC(=O)OCCSSCCCCCCC(C)C is greater than or equal to 70%
Reply | Yes
